Hello, the source for this data is patent US20200123233A1, in case you need it.

biological target: Rabies virus glycoprotein G, strain CVS-11 (Challenge Virus Standard-11, ATCC VR 959) (Rabies virus, strain CVS-11); assay: cell-based or functional assay
Quick reference for CVS neutralizing antibody titre (RFFIT): IU/mg among some binders
Endpoint: CVS neutralizing antibody titre (RFFIT): IU/mg (IU/mg)

binder="213-E6 25GS 212-C12 (VHH) EVQLVESGGGLVQAGASLRLSCAASGSTLSRYGVGWFRQAPGKERELVASVDWSGSRTYYADSVKGRFTISRDNAKNTGYLQMNSLKPDDTAVYYCAADSSVVPGIEKYDDWGLGTQVTVSSGGGGSGGGGSGGGGSGGGGSGGGGSEVQLVESGGGLVQPGGSLRLSCAASGFTFGSSDMSWVRQAPGKGPEWVSGINSGGGRTLYADSVKGRFTISRDNAKNTLYLQMNSLKSEDTAVYYCATDLYGSSWYTDYWSQGTQVTVSS" test_result=248
binder="213-E6 5GS 212-C12 (VHH) EVQLVESGGGLVQAGASLRLSCAASGSTLSRYGVGWFRQAPGKERELVASVDWSGSRTYYADSVKGRFTISRDNAKNTGYLQMNSLKPDDTAVYYCAADSSVVPGIEKYDDWGLGTQVTVSSGGGGSEVQLVESGGGLVQPGGSLRLSCAASGFTFGSSDMSWVRQAPGKGPEWVSGINSGGGRTLYADSVKGRFTISRDNAKNTLYLQMNSLKSEDTAVYYCATDLYGSSWYTDYWSQGTQVTVSS" test_result=385
